Measured values drawn from the FLAb antibody collection for this set.

Quick reference for patients with anti-drug antibodies among some proteins
test: patients with anti-drug antibodies; higher = more immunogenic
Numeric answer only, unit % assumed.

// below: answered proteins
unnamed (protein) chain 1: QVQLVQSGAEVKKPGASVKVSCKASGYIFSNYWIQWVRQAPGQGLEWMGEILPGSGSTEYAQKFQGRVTMTADTSTSTAYMELSSLRSEDTAVYYCARYFFGSSPNWYFVWGQGT chain 2: DIQMTQSPSLSASVGDRVTITCGASENIYGALNWYQRKPGKAPKLLIYGATNLADGVPSRFSGSGSGTDYTLTISSLQPEDFATYYCQNVLNTPLTFGQGTKVEIK :: 0
unnamed (protein) chain 1: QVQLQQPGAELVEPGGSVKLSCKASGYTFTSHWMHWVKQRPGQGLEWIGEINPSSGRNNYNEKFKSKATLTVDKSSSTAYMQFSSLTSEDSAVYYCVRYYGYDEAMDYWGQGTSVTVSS chain 2: DIVMTQAAFSNPVTLGTSASISCRSSKSLLHSNGITYLYWYLQKPGQSPQLLIYQMSNLASGVPDRFSSSGSGTDFTLRISRVEAEDVGVYYCAQNLELPYTFGGGTKLEIK :: 0
unnamed (protein) chain 1: QVQLVQPGAEVVKPGASVKLSCKTSGYTFTSNWMHWVKQAPGQGLEWIGEIDPSDSYTNYNQNFQGKAKLTVDKSTSTAYMEVSSLRSDDTAVYYCARGSNPYYYAMDYWGQGTSVTVSS chain 2: EIVLTQSPAIMSASPGERVTMTCSASSGVNYMHWYQQKPGTSPRRWIYDTSKLASGVPARFSGSGSGTSYSLTISSMEPEDAATYYCHQRGSYTFGGGTKLEIK :: 0
unnamed (protein) chain 1: QVQLVESGGGLVQPGGSLRLSCAASGFTFRSHWLSWVRQAPGKGLEWVSNINYDGSSTYYADSVKGRFTISRDNSKNTLYLQMNSLRAEDTAVYYCARDTYLHFDYWGQGTLVTVSS chain 2: DIALTQPASVSGSPGQSITISCTGTSSDVGDINDVSWYQQHPGKAPKLMIYDVNNRPSGVSNRFSGSKSGNTASLTISGLQAEDEADYYCQSYAGSYLSEVFGGGTKLTVL :: 0

Reported patients with anti-drug antibodies, protein unnamed (protein) chain 1: QVQLQQSGPELKKPGASVKVSCKDSGYAFSSSWMNWVRQAPGQGLEWIGRIYPGDGDTNYNGKFQGRVTITADKSSSTAYMELSSLRSEDTAVYFCARSGLLRYAMDYWGQGTLVTVSS chain 2: DIQMTQSPSSLSASVGDRVTITCRASQDIRNYLNWYQQKPGKAVKLLIYYTSRLLPGVPSRFSGSGSGTDYSLTISSQEQEDIGTYFCQQGNTLPWTFGQGTKVEIR : ____
2.5
